Test system: HUVEC
ASSAY DETAILS: Inhibitory concentration against human umbilical vein endothelial cells (HUVECs) induced by VEGF
Format: functional, cell-based
REPORTED ENDPOINT: pIC50
Give only the number. pIC50 is defined as minus log10 of concentration in molar units.

Q: Any idea what its pIC50 is? The molecule is "CN(c1ccc(NC(=O)Oc2ccccc2)cc1)c1ccnc(Nc2cccc(CS(C)(=O)=O)c2)n1"
Result: 6.65

Q: Any idea what its pIC50 is? The molecule is "CN(c1ccc(NC(=O)Nc2ccc(OC(F)(F)F)cc2)cc1)c1ccnc(Nc2ccc(S(N)(=O)=O)cc2)n1"
Result: 7.43
